Tested on: Escherichia coli TOP10
assay-summary: shrunken log2 fold change of peptide-encoding DNA abundance (4.5 h post-induction vs induction); higher = less antimicrobial activity (less host growth inhibition)
condition-context: time post-induction: 4.5 h; library: site-saturation at positions 5, 18, 19, 20
Please go through the items and note down their shrunken log2 fold change.
Give bare numbers.

Hi! Can you tell me shrunken log2 fold change for each of these sequences?
1. RRIRPRPPRLPRPRPRPRDMPRP
2. RRIRSRPPRLPRPRPRPHNVPRP
3. RRIRSRPPRLPRPRPRPFGPPRP
4. RRIRQRPPRLPRPRPRPDTVPRP
5. RRIRARPPRLPRPRPRPCNQPRP

a:
[0.201, -0.436, 0.132, -0.171, -0.253]

Hi! Can you tell me shrunken log2 fold change for each of these sequences?
1. RRIRQRPPRLPRPRPRPWPLPRP
2. RRIRERPPRLPRPRPRPHHRPRP
3. RRIRTRPPRLPRPRPRPHKFPRP

a:
1: -0.0625; 2: -0.145; 3: -0.18

* * *

Tested on: Escherichia coli TOP10
assay-summary: shrunken log2 fold change of peptide-encoding DNA abundance (4.5 h post-induction vs induction); higher = less antimicrobial activity (less host growth inhibition)
condition-context: time post-induction: 4.5 h; library: site-saturation at positions 5, 18, 19, 20
Measured shrunken log2 fold change determines class: bin A (below -0.1), bin B (-0.1 to below 0.1), bin C (0.1 or more)

Solved cases (4 shown):
q: Entry RRIRSRPPRLPRPRPRPIWKPRP belongs to which category?
a: bin C

q: Entry RRIRVRPPRLPRPRPRPNEIPRP belongs to which category?
a: bin A

q: Entry RRIRSRPPRLPRPRPRPWHGPRP belongs to which category?
a: bin B

q: Entry RRIRQRPPRLPRPRPRPSVMPRP belongs to which category?
a: bin A

Now consider the entry below.
q: Entry RRIRGRPPRLPRPRPRPWDFPRP belongs to which category?
a: bin C

* * *

Tested on: Escherichia coli TOP10;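 note: peptides expressed intracellularly from a pBAD plasmid library in pooled LB shake-flask culture, induced with 0.3% L-arabinose, DNA abundance read by NGS, three biological replicates, DESeq2 with apeglm shrinkage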
assay-summary: shrunken log2 fold change of peptide-encoding DNA abundance (4.5 h post-induction vs induction); higher = less antimicrobial activity (less host growth inhibition)
condition-context: time post-induction: 4.5 h; library: site-saturation at positions 5, 18, 19, 20
Please go through the items and note down their shrunken log2 fold change.

q: Can you look up the measured shrunken log2 fold change of RRIRNRPPRLPRPRPRPEIIPRP for me?
a: -0.00607

q: Can you look up the measured shrunken log2 fold change of RRIRPRPPRLPRPRPRPQFKPRP for me?
a: 0.0824

q: Can you look up the measured shrunken log2 fold change of RRIRMRPPRLPRPRPRPQCCPRP for me?
a: 0.00357

q: Can you look up the measured shrunken log2 fold change of RRIRSRPPRLPRPRPRPQRSPRP for me?
a: 0.316

Hi! Can you tell me shrunken log2 fold change for each of these sequences?
1. RRIRKRPPRLPRPRPRPEKQPRP
2. RRIRCRPPRLPRPRPRPQKAPRP
3. RRIRYRPPRLPRPRPRPFNGPRP
4. RRIRCRPPRLPRPRPRPMQTPRP

a:
-0.0582
0.265
-0.0276
1.52

Hi! Can you tell me shrunken log2 fold change for each of these sequences?
1. RRIRQRPPRLPRPRPRPMSLPRP
2. RRIRPRPPRLPRPRPRPRKEPRP
3. RRIRGRPPRLPRPRPRPKNWPRP
4. RRIRVRPPRLPRPRPRPNTLPRP
5. RRIRRRPPRLPRPRPRPTMAPRP
6. RRIRQRPPRLPRPRPRPQLPPRP
7. RRIRVRPPRLPRPRPRPWSIPRP

a:
-0.13
-0.157
0.466
-0.478
0.392
-0.23
-0.0192

Hi! Can you tell me shrunken log2 fold change for each of these sequences?
1. RRIRQRPPRLPRPRPRPEVEPRP
2. RRIRSRPPRLPRPRPRPSWPPRP
3. RRIRARPPRLPRPRPRPAKSPRP
4. RRIRHRPPRLPRPRPRPNVCPRP
5. RRIRVRPPRLPRPRPRPMVHPRP
6. RRIRWRPPRLPRPRPRPMNRPRP
7. RRIRKRPPRLPRPRPRPPMEPRP
8. RRIRNRPPRLPRPRPRPWHGPRP

a:
1: 0.0391; 2: -0.135; 3: 0.061; 4: -0.0562; 5: 0.141; 6: -0.00448; 7: 0.135; 8: -0.153

Hi! Can you tell me shrunken log2 fold change for each of these sequences?
1. RRIRHRPPRLPRPRPRPRDRPRP
2. RRIRRRPPRLPRPRPRPNANPRP

a:
1. 0.0898
2. 0.58
